All values here come from ChEMBL document CHEMBL1201862.

GI50 values by entry
Test system: EKVX
assay_remarks: NCI tumour cell line growth inhibition, 48 h
Active and inactive are the calls of the source. Rule as the data show it: active = GI50 up to about 1.1 µM and inactive = higher.

| compound | GI50 |
| --- | --- |
| O=C(CC(NC(=O)OCc1ccccc1)C(=O)NC1Cc2ccccc2C1=O)OCc1ccccc1 (stereo not given) | > 100 µM (inactive) |
| CN(C)P(=O)(/C(N)=N/Nc1ccc([N+](=O)[O-])cc1)N(C)C | > 100 µM (inactive) |
| N#CCc1c(F)c(F)c(F)c(F)c1F | > 100 µM (inactive) |
| COc1ccc(C(=O)/C=C/c2ccc(OCC(=O)N3CCN(c4ccccc4)CC3)cc2)cc1 | > 70.5 µM (inactive) |
| CCCCOC(=O)C1C(c2ccc(Cl)cc2)NC(c2ccc(Cl)cc2)C(C(=O)OCCCC)S1(=O)=O (stereo not given) | > 100 µM (inactive) |
| COc1ccc(N2C(=O)C3CC(c4ccc(C)cc4)c4c([nH]c5ccccc45)C3C2=O)cc1 (stereo not given) | > 63.5 µM (inactive) |
| O=c1c2nc[nH]c2n(-c2ccccc2)c(=S)n1-c1ccccc1 | > 100 µM (inactive) |
| COC(=O)C1=C(C(=O)OC)C(C(=O)OC)C(C(=O)OC)C(C(=O)OC)(C(=O)OC)C(C(=O)OC)=C1C(=O)OC (stereo not given) | 18.3 µM (inactive) |
| Cc1cc2c3c(nc4ccccc42)C(=O)c2ccccc2-c3n1 | 29.4 µM (inactive) |
| N=C(N)NCCCCCCC(=O)NC(O)C(=O)NCCCCNCCCN (stereo not given) | 643 µM (inactive) |
